Test system: Acanthamoeba culbertsoni (ATCC30171) cysts
assay: Encystation drug susceptibility / excystation viability assay, 30 day recovery, A. culbertsoni cysts
Type: cell-based
reported conditions: ATCC30171, 720 h, minimum cysticidal concentration, no recovery up to 30 days, read-out: A. culbertsoni 30 day MCC
Structures can show the parent of a compound that is named as a salt.
So basically: is MCC under 4 µM? Then Met. Not under? Then Not met.

compound: COc1cc(-c2nc3ccc(C(=N)NC(C)C)cc3[nH]2)ccc1Oc1ccc(-c2nc3ccc(C(=N)NC(C)C)cc3[nH]2)cc1F
class assignment: Not met

compound: CC(C)NC(=N)c1ccc2nc(-c3ccc(Oc4ccc(-c5nc6ccc(C(=N)NC(C)C)cc6[nH]5)cc4F)cc3)[nH]c2c1
class assignment: Not met

compound: COc1cc(Oc2ccc(-c3nc4ccc(C(=N)NC(C)C)cc4[nH]3)cc2F)ccc1-c1nc2ccc(C(=N)NC(C)C)cc2[nH]1
class assignment: Not met

compound: CC(C)NC(=N)c1ccc2nc(-c3ccc(Oc4ccc(-c5nc6ccc(C(=N)NC(C)C)cc6[nH]5)c(Br)c4)cc3)[nH]c2c1
class assignment: Not met

compound: COc1cc(Oc2ccc(-c3nc4ccc(C(=N)NC(C)C)cc4[nH]3)c(Br)c2)ccc1-c1nc2ccc(C(=N)NC(C)C)cc2[nH]1
class assignment: Met

compound: CC(C)NC(=N)c1ccc2nc(-c3ccc(Oc4ccc(-c5nc6ccc(C(=N)NC(C)C)cc6[nH]5)c(Br)c4)c(F)c3)[nH]c2c1
class assignment: Met

compound: CC(C)NC(=N)c1ccc2nc(-c3ccc(Oc4ccc(-c5nc6ccc(C(=N)NC(C)C)cc6[nH]5)cc4Br)cc3)[nH]c2c1
class assignment: Not met

compound: COc1cc(Oc2ccc(-c3nc4ccc(C(=N)NC(C)C)cc4[nH]3)c(Cl)c2)ccc1-c1nc2ccc(C(=N)NC(C)C)cc2[nH]1
class assignment: Met

compound: CCC(CC)NC(=N)c1ccc2nc(-c3ccc(Oc4ccc(-c5nc6ccc(C(=N)NC(CC)CC)cc6[nH]5)cc4)cc3)[nH]c2c1
class assignment: Not met

compound: CCCCC(CC)CNC(=N)NC(=N)NCCCCCCNC(=N)NC(=N)NCC(CC)CCCC (centres unmarked) [Alexidine HCL, alexidine, reference compound]
class assignment: Not met

compound: CC(C)NC(=N)c1ccc2nc(-c3ccc(Oc4ccc(-c5nc6ccc(C(=N)NC(C)C)cc6[nH]5)c(Cl)c4)cc3Cl)[nH]c2c1
class assignment: Met

compound: N=C(NCCCCCCNC(=N)NC(=N)Nc1ccc(Cl)cc1)NC(=N)Nc1ccc(Cl)cc1 [Chlorhexidine, chlorhexidine, reference compound]
class assignment: Not met

compound: CC(C)NC(=N)c1ccc2nc(-c3ccc(Oc4ccc(-c5nc6ccc(C(=N)NC(C)C)cc6[nH]5)cc4Cl)c(Cl)c3)[nH]c2c1
class assignment: Not met

compound: CC(C)NC(=N)c1ccc2nc(-c3ccc(Oc4ccc(-c5nc6ccc(C(=N)NC(C)C)cc6[nH]5)c(Br)c4)c(Br)c3)[nH]c2c1
class assignment: Met

The reported numbers originate from patent US12433872B2.
